# Tested on: MS2 coat protein
# experiment_notes: apparent Kd, MS2 coat protein; higher = weaker binding; RNA-MaP array; theophylline 2 mM where present
# condition_label: designed as: OFF switch for theophylline; no ligand
measured_endpoint: apparent Kd (nM)

sequence_string | measured_endpoint | value_units | measured
UCACGACGCAUGGAUACCAGCGACAUGAGGAUCACCCAUGUAUGAGGAUCAGCCAUGUUAUGCCCUUGGCAGCCACGAAGGUCAU | apparent Kd | nM | 14.1
UGUCUAGUAAUCGAUACCAGCUACAUGAGGAUCACCCAUGUAGUUCGAACGGCCGCAUGUAGCCCUUGGCAGCGAAUAGUUACAU | apparent Kd | nM | 18.9
AUUUUCAUGGUCAUAUAUAUAUCUUCAGAUACCAGACUAUAUUAAGUCCCUUGGCAGCUGUUACAUGAGGAUCACCCAUGUUAUA | apparent Kd | nM | 127
UUAUUUAUAUUAGAUACCAGUUUAAUGGCCGCAAAUCCUGACAUGAGGAUCACCCAUGUAAGCCCUUGGCAGCUGGUAUGGGUUU | apparent Kd | nM | 19.3
